Molecular target: human P2Y13 receptor (Homo sapiens (Human))
Sequence (Q9BPV8 whole entry): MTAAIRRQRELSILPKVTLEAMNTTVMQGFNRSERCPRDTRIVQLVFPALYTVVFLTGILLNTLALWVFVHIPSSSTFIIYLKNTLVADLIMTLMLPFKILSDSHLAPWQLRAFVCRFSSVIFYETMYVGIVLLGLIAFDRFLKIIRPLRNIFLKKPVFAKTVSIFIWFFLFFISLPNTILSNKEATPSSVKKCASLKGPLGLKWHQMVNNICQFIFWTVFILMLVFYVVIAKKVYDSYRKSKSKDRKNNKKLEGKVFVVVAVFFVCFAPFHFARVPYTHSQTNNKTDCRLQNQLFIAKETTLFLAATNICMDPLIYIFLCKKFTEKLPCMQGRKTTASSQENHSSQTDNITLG
Experiment: Ca++ flux agonist assay on P2Y13 receptor transfected 1321N1 cells
Assay type: cell-based
Settings: Table 4, measured from data of Figure 2; comma is decimal sign
MEASURED ENDPOINT: EC50 (nM)

Completed entries (count: 3):
>>> obs_value("CSCCNc1nc(SCCC(F)(F)F)nc2c1ncn2[C@@H]1O[C@H](COP(=O)(O)OP(=O)(O)C(Cl)(Cl)P(=O)(O)O)[C@@H](O)[C@H]1O [Reference Compound, reference compound]")
6.32
>>> obs_value("CN(C)c1ncc(CN2CCC(c3cc(O)nc(N4CCOCC4)n3)CC2)cn1 [Compound IIa]")
40300
>>> obs_value("COCCNCC(=O)Nc1ccc2c(c1)OCCO2 [Compound XIa]")
48.9

P: COc1ccc(CN2CCC(c3cc(O)nc(N4CCCCC4)n3)CC2)cc1O [Compound IIb]
Q: O=C(C1OCCc2ccccc21)N1CCC2(CC1)Nc1ccccc1-n1cccc12 (centres unmarked) [Compound VIIa]
P or Q : whose EC50 is greater? Indicate your choice by writing its label.
Q
(Q: 40300 nM, P: 299 nM)
